- system_tested: Estrogen receptor (Homo sapiens)
- assay_method_text: ATG_ERa_TRANS: Attagene TRANS-FACTORIAL HepG2 Assay for human Estrogen Receptor alpha (ERa) (AID 2282970)
- assay_setup: HepG2 Attagene TRANS ERa GAL4 reporter, mRNA
Records with an inconclusive call do not appear. Calls of active or inactive are those of the source. How the source made its calls: active means hit-call score of the fitted dose curve at least 0.9, where 1 is the maximum; inconclusive means response in the unintended direction; inactive means score below 0.9.
Outcomes: Yes for active, No for inactive

[
  {
    "molecule": "CC(C)c1ccc(C#N)cc1",
    "class": "No"
  },
  {
    "molecule": "O=C1CC2CC1C1CCCC21 (stereo not drawn)",
    "class": "No"
  },
  {
    "molecule": "C1=Cc2ccccc2C1",
    "class": "Yes"
  },
  {
    "molecule": "Nc1nc2ccccc2[nH]1",
    "class": "No"
  },
  {
    "molecule": "Cc1c(C)c([N+](=O)[O-])c(C(C)(C)C)c([N+](=O)[O-])c1C",
    "class": "No"
  },
  {
    "molecule": "CC(C)=CCC[C@H](C)CCO",
    "class": "No"
  },
  {
    "molecule": "CCCNC(=O)NS(=O)(=O)c1ccc(Cl)cc1",
    "class": "No"
  },
  {
    "molecule": "CNC(=S)NN",
    "class": "No"
  }
]

====

- Read-out: Tissue Factor, F3 (gene 2152)
- assay_method_text: BSK_LPS_TissueFactor: BioMAP Diversity Plus: LPS Assay for Tissue Factor Biomarker Activity (AID 2283084)
- assay_setup: primary human HUVEC with PBMC; actives raise or lower the signal
Calls of active or inactive are those of the source. Rule for the calls: active = hit-call score of the fitted dose curve at least 0.9, where 1 is the maximum; inactive = score below 0.9.
Outcomes: active, inactive

[
  {
    "compound": "CCCCCCCCCCCCCCCC[N+](C)(C)CC",
    "class": "active"
  },
  {
    "compound": "O=Nc1ccc(O)cc1",
    "class": "inactive"
  },
  {
    "compound": "c1ccc2c(c1)ccc1ncccc12",
    "class": "active"
  },
  {
    "compound": "c1ccc(-c2ccccn2)nc1",
    "class": "inactive"
  },
  {
    "compound": "CCO[Si](CCCN=C=O)(OCC)OCC",
    "class": "inactive"
  },
  {
    "compound": "O=C(Nc1ccccc1SSc1ccccc1NC(=O)c1ccccc1)c1ccccc1",
    "class": "inactive"
  },
  {
    "compound": "COCc1c(C(C)C)nc(C(C)C)c(/C=C/[C@@H](O)C[C@@H](O)CC(=O)O)c1-c1ccc(F)cc1",
    "class": "active"
  },
  {
    "compound": "CCCCC(CC)COC(=O)c1ccccc1O (stereo not given)",
    "class": "inactive"
  },
  {
    "compound": "CCCCC/C=C\\C/C=C\\CCCCCCCC(=O)OC",
    "class": "active"
  },
  {
    "compound": "O=C(c1ccc(O)cc1)c1ccc(O)cc1O",
    "class": "inactive"
  },
  {
    "compound": "O=c1c2ccccc2oc2ccccc12",
    "class": "inactive"
  },
  {
    "compound": "C/C=C\\C/C=C/CCCCCCCCOC(C)=O",
    "class": "active"
  },
  {
    "compound": "CCOc1nc(F)cc2nc(S(=O)(=O)Nc3c(Cl)cccc3C(=O)OC)nn12",
    "class": "inactive"
  },
  {
    "compound": "CCCCNc1ccc(NCCCC)c2c1C(=O)c1ccccc1C2=O",
    "class": "inactive"
  },
  {
    "compound": "CO[Si](OC)(OC)c1ccccc1",
    "class": "inactive"
  },
  {
    "compound": "CC1OC1C1CCC2(C)OC2C1 (stereo not given)",
    "class": "inactive"
  },
  {
    "compound": "CCCCC(CC)COCC1CO1 (stereo not given)",
    "class": "inactive"
  },
  {
    "compound": "COc1ccc2nc(N)sc2c1",
    "class": "inactive"
  },
  {
    "compound": "C=CCOc1c(Br)cc(Br)cc1Br",
    "class": "inactive"
  },
  {
    "compound": "O=C(Cl)c1cc(C(=O)Cl)cc(C(=O)Cl)c1",
    "class": "active"
  }
]

====

- assay_method_text: CCTE_Shafer_MEA_dev_firing_rate_mean: CCTE's Neural Network Formation Assay for Mean Firing Rate, Shafer Lab (AID 2284031);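 further: AUC of well mean spike rate recorded on DIV 5 7 9 and 12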
The source made the active and inactive calls. The calls were made as follows: active = hit-call score of the fitted dose curve at least 0.9, where 1 is the maximum; inactive = score below 0.9.
Outcomes: active, inactive

[
  {
    "molecule": "CN(C)c1ccc(C(=N)c2ccc(N(C)C)cc2)cc1",
    "class": "active"
  },
  {
    "molecule": "c1ccc2c(c1)ccc1cc3c(ccc4ccccc43)cc12",
    "class": "inactive"
  },
  {
    "molecule": "N[C@H]1C(O)O[C@H](CO)[C@H](O)[C@@H]1O (some centres undefined)",
    "class": "inactive"
  },
  {
    "molecule": "FC(F)=C(F)OC(F)(F)C(F)(F)C(F)(F)F",
    "class": "inactive"
  }
]

====

- system_tested: Retinoic acid receptor RXR-alpha (Homo sapiens) (UniProt P19793)
- Sequence (P19793 whole entry, looked up): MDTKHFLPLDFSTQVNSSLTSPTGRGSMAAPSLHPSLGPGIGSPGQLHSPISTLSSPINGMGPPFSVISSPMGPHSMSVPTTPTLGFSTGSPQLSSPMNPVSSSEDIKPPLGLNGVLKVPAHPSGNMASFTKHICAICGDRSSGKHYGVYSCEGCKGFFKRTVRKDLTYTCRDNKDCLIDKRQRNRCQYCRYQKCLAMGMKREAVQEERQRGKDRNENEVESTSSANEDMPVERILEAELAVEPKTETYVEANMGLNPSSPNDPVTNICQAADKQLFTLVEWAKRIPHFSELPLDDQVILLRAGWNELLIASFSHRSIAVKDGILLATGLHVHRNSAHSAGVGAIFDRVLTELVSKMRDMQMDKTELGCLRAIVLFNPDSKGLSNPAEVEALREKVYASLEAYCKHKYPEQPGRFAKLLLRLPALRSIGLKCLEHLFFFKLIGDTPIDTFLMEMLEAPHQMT
- assay_method_text: OT_NURR1_NURR1RXRa_0480: Odyssey Thera (OT) 8-hour HEK293T Protein Complementation Assay for Nurr1/retinoid X receptor (RXR) (AID 2283385)
Results filed as inconclusive are left out. Activity calls are given as the source filed them. Rule for the calls: active = hit-call score of the fitted dose curve at least 0.9, where 1 is the maximum; inconclusive = response in the unintended direction; inactive = score below 0.9.
Outcomes: active, inactive

[
  {
    "compound": "CCCCC/C=C\\CCC=O",
    "system_tested": "Retinoic acid receptor RXR-alpha (Homo sapiens) (UniProt P19793)",
    "class": "inactive"
  },
  {
    "compound": "CC(C)(C)c1ccc(-c2ccc(C(C)(C)C)cc2)cc1",
    "system_tested": "Retinoic acid receptor RXR-alpha (Homo sapiens) (UniProt P19793)",
    "class": "active"
  },
  {
    "compound": "CC(=O)OC(C)C",
    "system_tested": "Retinoic acid receptor RXR-alpha (Homo sapiens) (UniProt P19793)",
    "class": "inactive"
  },
  {
    "compound": "O=C(c1ccccc1)C1CCC1",
    "system_tested": "Retinoic acid receptor RXR-alpha (Homo sapiens) (UniProt P19793)",
    "class": "inactive"
  },
  {
    "compound": "CC(C)c1ccc2c(C(C)C)cc(C(C)C)c(S(=O)(=O)O)c2c1",
    "system_tested": "Retinoic acid receptor RXR-alpha (Homo sapiens) (UniProt P19793)",
    "class": "inactive"
  },
  {
    "compound": "CCCCC(CC)CCC(CC(C)C)OS(=O)(=O)O (configuration not stated)",
    "system_tested": "Retinoic acid receptor RXR-alpha (Homo sapiens) (UniProt P19793)",
    "class": "inactive"
  },
  {
    "compound": "Oc1ccc(Cl)cc1Cc1cc(Cl)ccc1O",
    "system_tested": "Retinoic acid receptor RXR-alpha (Homo sapiens) (UniProt P19793)",
    "class": "active"
  }
]

====

- Read-out: Vascular cell adhesion molecule 1 (VCAM1), VCAM1 (gene 7412)
- assay_method_text: BSK_hDFCGF_VCAM1: BioMAP Diversity Plus: hDFCGF Assay for Vascular cell adhesion molecule 1 (VCAM1) Biomarker Activity (AID 2283065);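 on AC50: VCAM-1 protein level quantified by ELISA after 24 h chemical exposure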
- assay_setup: primary human foreskin fibroblasts; actives raise or lower the signal
The source made the active and inactive calls. How the source made its calls: active means hit-call score of the fitted dose curve at least 0.9, where 1 is the maximum; inactive means score below 0.9.
value_type: AC50

[
  {
    "molecule": "C/C=C\\C/C=C/CCCCCCCCOC(C)=O",
    "observed_result": "24.6 µM (active)"
  },
  {
    "molecule": "O=Nc1ccc(O)cc1",
    "observed_result": "inactive"
  },
  {
    "molecule": "O=c1c2ccccc2oc2ccccc12",
    "observed_result": "inactive"
  },
  {
    "molecule": "c1ccc2c(c1)ccc1ncccc12",
    "observed_result": "inactive"
  },
  {
    "molecule": "CCO[Si](CCCN=C=O)(OCC)OCC",
    "observed_result": "inactive"
  },
  {
    "molecule": "C=CC=CC=CCCCCC",
    "observed_result": "inactive"
  },
  {
    "molecule": "CC1OC1C1CCC2(C)OC2C1 (centres undefined)",
    "observed_result": "inactive"
  },
  {
    "molecule": "CCCCC(CC)COCC1CO1 (centres undefined)",
    "observed_result": "inactive"
  },
  {
    "molecule": "CCOc1nc(F)cc2nc(S(=O)(=O)Nc3c(Cl)cccc3C(=O)OC)nn12",
    "observed_result": "inactive"
  },
  {
    "molecule": "C=CC(=O)OCC(Br)CBr (centres undefined)",
    "observed_result": "1.65 µM (active)"
  },
  {
    "molecule": "O=C1CCCN1CCO",
    "observed_result": "inactive"
  },
  {
    "molecule": "COCc1c(C(C)C)nc(C(C)C)c(/C=C/[C@@H](O)C[C@@H](O)CC(=O)O)c1-c1ccc(F)cc1",
    "observed_result": "inactive"
  },
  {
    "molecule": "COc1ccc2nc(N)sc2c1",
    "observed_result": "inactive"
  },
  {
    "molecule": "CCCCC/C=C\\C/C=C\\CCCCCCCC(=O)OC",
    "observed_result": "26.9 µM (active)"
  }
]
